B1: POU domain, class 4, transcription factor 3, residues 185 to 256; numbered along this chain, Q15319 (parent)
chain: RELEAFAERFKQRRIKLGVTQADVGAALANLKIPGVGSLSQSTICRFESLTLSHNNMIALKPVLQAWLEEAE

# Variants of: B1
# procedureSummary: abundance fitness (aPCA) (normalised: wild type 0, dead -1); higher = more abundant; growth selection in yeast, the domain comes from the species named
# assayConditions: Homo sapiens
Recorded abundance fitness, one value per entry.

Challenge: Request the reported abundance fitness associated with RELEAFAERFKQRRIKLGVTQADVGAALANLKIPGRGSLSQSTICRFESLTLSHNNMIALKPVLQAWLEEAE [V36R]
Response given: -0.332

Challenge: abundance fitness lookup needed for RELEAFAERFKQRRIKLGVTQADIGAALANLKIPGVGSLSQSTICRFESLTLSHNNMIALKPVLQAWLEEAE [V24I] , thanks.
Response given: -0.123

Challenge: What value of measured abundance fitness is listed for RELEAFAERFKQRRIKLGVTQADVGEALANLKIPGVGSLSQSTICRFESLTLSHNNMIALKPVLQAWLEEAE [A26E] ?
Response given: -0.051

Further cases:
Challenge: Request the reported abundance fitness associated with RELEAFAERFKQRRIKLGVTQADVGAALANLKIPGVGNLSQSTICRFESLTLSHNNMIALKPVLQAWLEEAE [S38N]
Response given: 0.022

Challenge: Value lookup for abundance fitness; key = RELEAFAERFKQRRIKLGVTQADPGAALANLKIPGVGSLSQSTICRFESLTLSHNNMIALKPVLQAWLEEAE [V24P]
Response given: -0.842

Challenge: Dear colleague, I am looking for the recorded abundance fitness of the following variant: RELEAFAERFKQRRIKLGVTQADVGAALANLKIPGVGSLSQSTICRFESQTLSHNNMIALKPVLQAWLEEAE [L50Q]
Response given: 0.124

Challenge: Record request: abundance fitness value, item RELEAFAERFKQRRIKLGVTQADVGAALANLKIPGVGSLSQSTICRFESLTLSHNNMIALHPVLQAWLEEAE [K61H]
Response given: -0.105

Challenge: Query (variant): RELEAFAERFKQRRIKLGVTQADVGAALANLKIPGVGHLSQSTICRFESLTLSHNNMIALKPVLQAWLEEAE [S38H] ; field requested: abundance fitness
Response given: -0.018

Challenge: Endpoint output: abundance fitness of RELEAFAERFKQRRIKLGVTQADVGAALANEKIPGVGSLSQSTICRFESLTLSHNNMIALKPVLQAWLEEAE [L31E] . Value?
Response given: 0.143

Challenge: Recorded abundance fitness for RELEAFAERFKQRRIKLGVTQADVGAALANLKIPGVGSWSQSTICRFESLTLSHNNMIALKPVLQAWLEEAE [L39W] , please?
Response given: -0.596

Challenge: // query abundance fitness value for entry RELEAFAERFKQRRIKLGVTQADVGLALANLKIPGVGSLSQSTICRFESLTLSHNNMIALKPVLQAWLEEAE [A26L]
Response given: -0.027

Challenge: # query: abundance fitness of entry RELEAFAERFKQRRIKLGVTQADVGAWLANLKIPGVGSLSQSTICRFESLTLSHNNMIALKPVLQAWLEEAE [A27W]
Response given: -0.202

Challenge: Value lookup for abundance fitness; key = RELEAFAERFKQRRIKLGVTQADWGAALANLKIPGVGSLSQSTICRFESLTLSHNNMIALKPVLQAWLEEAE [V24W]
Response given: -0.61

Challenge: For the variant shown here, RELEAFAERFKQRRIKLGVTQADVGAALANLTIPGVGSLSQSTICRFESLTLSHNNMIALKPVLQAWLEEAE [K32T] , give the reported abundance fitness.
Response given: -0.088

Challenge: Would you kindly share the measured abundance fitness for RELEAFAERFKQRRIKLGVTQADVGAALCNLKIPGVGSLSQSTICRFESLTLSHNNMIALKPVLQAWLEEAE [A29C] ?
Response given: 0.031

Challenge: Return reported abundance fitness; argument: RELEAFAERFKQRRIKLGVTQADVGAALANLKIPGVGSLAQSTICRFESLTLSHNNMIALKPVLQAWLEEAE [S40A]
Response given: -0.222
